Target Or System: PqsL (Pseudomonas aeruginosa)
Construct: final models contain residues 3–370
Test Protocol: X-ray crystal structure with FAD and 2-ABA; KD by fluorescence spectroscopy
Type: binding
Observed Property: Kd (µM)
Provide only the numeric value, understood in µM.

Exercise: Please report the recorded Kd for Nc1ccccc1C(=O)CC(=O)O [2-ABA, 2-aminobenzoylacetate] .
Key: 38.4

----------
Target Or System: PqsL (Pseudomonas aeruginosa, UniProt Q9HWJ1, P273A)
Sequence (Q9HWJ1 1-398 P273A): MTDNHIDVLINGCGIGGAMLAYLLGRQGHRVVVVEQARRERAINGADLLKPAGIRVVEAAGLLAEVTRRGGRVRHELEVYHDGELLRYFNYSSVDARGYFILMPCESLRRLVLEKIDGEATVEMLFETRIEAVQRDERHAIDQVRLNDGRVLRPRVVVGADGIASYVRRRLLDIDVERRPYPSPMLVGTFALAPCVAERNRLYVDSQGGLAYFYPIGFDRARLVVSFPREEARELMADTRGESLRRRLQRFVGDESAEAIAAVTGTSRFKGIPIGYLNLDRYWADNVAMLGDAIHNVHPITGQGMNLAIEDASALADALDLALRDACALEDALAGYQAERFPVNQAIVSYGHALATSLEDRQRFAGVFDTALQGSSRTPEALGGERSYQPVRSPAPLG
Test Protocol: FAD binding affinity (fluorescence spectroscopy)
Observed Property: pKd
As a rule, pKd stands for the negative log10 of the concentration, concentration in M.

Exercise: Please report the recorded pKd for `Cc1cc2nc3c(=O)[nH]c(=O)nc-3n(C[C@H](O)[C@H](O)[C@H](O)COP(=O)(O)OP(=O)(O)OC[C@H]3O[C@@H](n4cnc5c(N)ncnc54)[C@H](O)[C@@H]3O)c2cc1C` .
Key: 4.19
